Each entry below carries its recorded solubility.
- Protocol Details: Solubility in aqueous medium at pH 7.4
- Assay type: physicochemical
- Run Conditions: aqueous medium, pH 7.4, aqueous buffer
Enter your answer as a number in µg/mL; do not include the unit.

C[C@]12C[C@H](c3ccc(C#C/C=C/C#N)cc3)C3=C4CCC(=O)C=C4CCC3C1CC[C@@]2(O)C(F)(F)C(F)(F)F (stereo partly shown) [Example 4]; 8
C[C@]12C[C@H](c3ccc(C#CCO)cc3)C3=C4CCC(=O)C=C4CC[C@H]3[C@@H]1CC[C@@]2(O)C(F)(F)C(F)(F)F [Example 1]; 13
C[C@]12C[C@H](c3ccc(CO)cc3)C3=C4CCC(=O)C=C4CC[C@H]3[C@@H]1CC[C@@]2(O)C(F)(F)C(F)(F)F [Ref. 1*, reference compound]; 17
C[C@]12C[C@H](c3ccc(C#C/C=C\C#N)cc3)C3=C4CCC(=O)C=C4CCC3C1CC[C@@]2(O)C(F)(F)C(F)(F)F (stereo partly shown) [Example 5]; 8
C[C@]12C[C@H](c3ccc(C#CCNC(=O)Nc4ccc(F)cc4)cc3)C3=C4CCC(=O)C=C4CC[C@H]3[C@@H]1CC[C@@]2(O)C(F)(F)C(F)(F)F [Example 36]; 4

Which solubility is listed for C[C@]12C[C@H](c3ccc(C#C/C=C/c4cccc(C(=O)O)c4)cc3)C3=C4CCC(=O)C=C4CCC3C1CC[C@@]2(O)C(F)(F)C(F)(F)F (stereo partly shown) [Example 13A] ? 148

So what's the measured solubility for this one? CCO/N=C/C#Cc1ccc([C@H]2C[C@@]3(C)[C@@H](CC[C@@]3(O)C(F)(F)C(F)(F)F)[C@@H]3CCC4=CC(=O)CCC4=C32)cc1 [Example 25A] 5

// lookup solubility for C[C@]12C[C@H](c3ccc(C#C/C=N/OCc4ccccc4)cc3)C3=C4CCC(=O)C=C4CCC3C1CC[C@@]2(O)C(F)(F)C(F)(F)F (stereo partly shown) [Example 24A] 5

So what's the measured solubility for this one? C[C@]12C[C@H](c3ccc(C#CC(=O)O)cc3)C3=C4CCC(=O)C=C4CCC3C1CC[C@@]2(O)C(F)(F)C(F)(F)F (stereo partly shown) [Example 2] 178

Can you share its solubility? I mean this compound: C[C@]12C[C@H](c3ccc(C#CCNC(=O)Nc4ccccc4)cc3)C3=C4CCC(=O)C=C4CC[C@H]3[C@@H]1CC[C@@]2(O)C(F)(F)C(F)(F)F [Example 34] 7

Give the measured solubility of C[C@]12C[C@H](c3ccc(C#Cc4ccc(C(=O)O)cc4)cc3)C3=C4CCC(=O)C=C4CC[C@H]3[C@@H]1CC[C@@]2(O)C(F)(F)C(F)(F)F [Example 16] . 204

Look up solubility: C[C@]12C[C@H](c3ccc(C#CCOCCO)cc3)C3=C4CCC(=O)C=C4CC[C@H]3[C@@H]1CC[C@@]2(O)C(F)(F)C(F)(F)F [Example 11] 30

Given the entry CCNC(=O)NCC#Cc1ccc([C@H]2C[C@@]3(C)C(CC[C@@]3(O)C(F)(F)C(F)(F)F)C3CCC4=CC(=O)CCC4=C32)cc1 (stereo partly shown) [Example 31] , report its measured solubility. 10

----------
- Experimental Target: human progesterone receptor A (Homo sapiens, UniProt P06401)
- Construct: expressed in transfected cells; host or cells: SK-N-MC human neuroblastoma cells, stably transfected with pRChPR-A-neo and pMMTV-LUC
- Sequence (P06401 165-933): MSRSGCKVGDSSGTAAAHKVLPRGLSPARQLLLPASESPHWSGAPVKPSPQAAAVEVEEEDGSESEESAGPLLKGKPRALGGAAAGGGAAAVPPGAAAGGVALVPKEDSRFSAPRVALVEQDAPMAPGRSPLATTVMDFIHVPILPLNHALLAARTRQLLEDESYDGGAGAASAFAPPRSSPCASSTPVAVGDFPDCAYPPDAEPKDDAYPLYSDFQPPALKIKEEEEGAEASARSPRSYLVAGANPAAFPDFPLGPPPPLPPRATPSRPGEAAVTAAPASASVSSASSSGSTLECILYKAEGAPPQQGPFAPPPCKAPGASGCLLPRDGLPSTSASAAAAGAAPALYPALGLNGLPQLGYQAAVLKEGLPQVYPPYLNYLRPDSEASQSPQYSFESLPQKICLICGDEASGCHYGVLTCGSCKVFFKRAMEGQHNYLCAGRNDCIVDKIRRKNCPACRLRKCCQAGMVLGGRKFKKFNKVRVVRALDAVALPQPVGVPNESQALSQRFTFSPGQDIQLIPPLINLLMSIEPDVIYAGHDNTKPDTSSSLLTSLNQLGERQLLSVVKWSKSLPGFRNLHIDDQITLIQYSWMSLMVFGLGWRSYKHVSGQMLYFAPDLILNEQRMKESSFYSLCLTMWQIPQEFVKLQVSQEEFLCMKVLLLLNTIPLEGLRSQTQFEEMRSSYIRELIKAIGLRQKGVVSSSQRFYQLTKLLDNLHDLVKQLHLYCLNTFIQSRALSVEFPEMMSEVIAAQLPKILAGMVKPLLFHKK
- Protocol Details: Progesterone receptor-antagonistic action in stably transfected SK-N-MC cells, PR-A, MMTV-LUC reporter
- Type: cell-based
- Run Conditions: read-out: IC50 PR-A
The reader will find reported pIC50 values listed item by item below.
Please express pIC50 as -log10 of the molar concentration.

Below, 5 compounds whose answers are already recorded.
C[C@]12C[C@H](c3ccc(C#C/C=N/OCc4ccccc4)cc3)C3=C4CCC(=O)C=C4CCC3C1CC[C@@]2(O)C(F)(F)C(F)(F)F (stereo partly drawn) [Example 24A]; 10.00
C[C@]12C[C@H](c3ccc(C#Cc4ccc(C(=O)O)cc4)cc3)C3=C4CCC(=O)C=C4CC[C@H]3[C@@H]1CC[C@@]2(O)C(F)(F)C(F)(F)F [Example 16]; 10.00
C[C@]12C[C@H](c3ccc(C#CCOC(=O)Nc4cccnc4)cc3)C3=C4CCC(=O)C=C4CC[C@H]3[C@@H]1CC[C@@]2(O)C(F)(F)C(F)(F)F [Example 57]; 11.00
CCO/N=C\C#Cc1ccc([C@H]2C[C@@]3(C)C(CC[C@@]3(O)C(F)(F)C(F)(F)F)C3CCC4=CC(=O)CCC4=C32)cc1 (stereo partly drawn) [Example 25B]; 10.05
COC(=O)c1cccc(C=CC#Cc2ccc([C@H]3C[C@@]4(C)C(CC[C@@]4(O)C(F)(F)C(F)(F)F)C4CCC5=CC(=O)CCC5=C43)cc2)c1 (mixture of isomers) [Example 12]; 9.00

Requested field: pIC50. Item: C[C@]12C[C@H](c3ccc(C#CCN=[N+]=[N-])cc3)C3=C4CCC(=O)C=C4CC[C@H]3[C@@H]1CC[C@@]2(O)C(F)(F)C(F)(F)F [Example 23] 9.70

Param item = C[C@]12C[C@H](c3ccc(C#CCOCC#N)cc3)C3=C4CCC(=O)C=C4CCC3C1CC[C@@]2(O)C(F)(F)C(F)(F)F (stereo partly drawn) [Example 14] ; retrieve measured pIC50. 10.00

Query: pIC50; subject: C[C@]12C[C@H](c3ccc(C#CCNC(=O)Nc4ccccc4)cc3)C3=C4CCC(=O)C=C4CC[C@H]3[C@@H]1CC[C@@]2(O)C(F)(F)C(F)(F)F [Example 34] 10.00

Quick one: pIC50 for C[C@]12C[C@H](c3ccc(C#CCOCC(=O)O)cc3)C3=C4CCC(=O)C=C4CCC3C1CC[C@@]2(O)C(F)(F)C(F)(F)F (stereo partly drawn) [Example 10] ? 8.05

Which pIC50 is reported for this compound? CC(C)CO/N=C/C#Cc1ccc([C@H]2C[C@@]3(C)C(CC[C@@]3(O)C(F)(F)C(F)(F)F)C3CCC4=CC(=O)CCC4=C32)cc1 (mixture of isomers) [Example 26] 10.10

What pIC50 value was documented for this compound, C#Cc1ccc([C@H]2C[C@@]3(C)C(CC[C@@]3(O)C(F)(F)C(F)(F)F)C3CCC4=CC(=O)CCC4=C32)cc1 (stereo partly drawn) [Example 22] ? 10.85

Reported pIC50, compound C[C@]12C[C@H](c3ccc(C#CCOC(=O)NCc4ccccc4)cc3)C3=C4CCC(=O)C=C4CCC3C1CC[C@@]2(O)C(F)(F)C(F)(F)F (stereo partly drawn) [Example 50] : ____ 11.00

----------
- Protocol Details: Metabolic stability in human liver microsomes
- Assay type: in vitro ADME
- Run Conditions: predicted in vivo clearance from liver microsomes, well-stirred model, 1 μM
Tick Y if Predicted clearance Human is 10 mL/min/kg or greater. Tick N if Predicted clearance Human is less than 10 mL/min/kg.

C[C@]12C[C@H](c3ccc(C#CCO)cc3)C3=C4CCC(=O)C=C4CC[C@H]3[C@@H]1CC[C@@]2(O)C(F)(F)C(F)(F)F; N
C[C@]12C[C@H](c3ccc(C#C/C=N/OCc4ccccc4)cc3)C3=C4CCC(=O)C=C4CCC3C1CC[C@@]2(O)C(F)(F)C(F)(F)F (some centres unmarked) [Example 24A]; Y
C[C@]12C[C@H](c3ccc(C#CC(=O)O)cc3)C3=C4CCC(=O)C=C4CCC3C1CC[C@@]2(O)C(F)(F)C(F)(F)F (some centres unmarked); N
CCNC(=O)NCC#Cc1ccc([C@H]2C[C@@]3(C)C(CC[C@@]3(O)C(F)(F)C(F)(F)F)C3CCC4=CC(=O)CCC4=C32)cc1 (some centres unmarked); Y
C[C@]12C[C@H](c3ccc(C#C/C=C/C#N)cc3)C3=C4CCC(=O)C=C4CCC3C1CC[C@@]2(O)C(F)(F)C(F)(F)F (some centres unmarked); N
C[C@]12C[C@H](c3ccc(C#C/C=C\C#N)cc3)C3=C4CCC(=O)C=C4CCC3C1CC[C@@]2(O)C(F)(F)C(F)(F)F (some centres unmarked); N
C[C@]12C[C@H](c3ccc(C#CCOCCO)cc3)C3=C4CCC(=O)C=C4CC[C@H]3[C@@H]1CC[C@@]2(O)C(F)(F)C(F)(F)F; N
C[C@]12C[C@H](c3ccc(C#CCNC(=O)Nc4ccccc4)cc3)C3=C4CCC(=O)C=C4CC[C@H]3[C@@H]1CC[C@@]2(O)C(F)(F)C(F)(F)F; Y
C[C@]12C[C@H](c3ccc(CO)cc3)C3=C4CCC(=O)C=C4CC[C@H]3[C@@H]1CC[C@@]2(O)C(F)(F)C(F)(F)F [Ref. 1*, reference compound]; Y

Moving on to the next compound.
Decide: Predicted clearance Human of CCO/N=C/C#Cc1ccc([C@H]2C[C@@]3(C)[C@@H](CC[C@@]3(O)C(F)(F)C(F)(F)F)[C@@H]3CCC4=CC(=O)CCC4=C32)cc1 [Example 25A] >= 10 mL/min/kg? Y
